Target: T1, IFN-γ receptor (IFNGR; IFNGR1 and IFNGR2) on human cells (human, UniProt P15260 18-489; P38484 22-337)
T1 sequence (looked up) 1: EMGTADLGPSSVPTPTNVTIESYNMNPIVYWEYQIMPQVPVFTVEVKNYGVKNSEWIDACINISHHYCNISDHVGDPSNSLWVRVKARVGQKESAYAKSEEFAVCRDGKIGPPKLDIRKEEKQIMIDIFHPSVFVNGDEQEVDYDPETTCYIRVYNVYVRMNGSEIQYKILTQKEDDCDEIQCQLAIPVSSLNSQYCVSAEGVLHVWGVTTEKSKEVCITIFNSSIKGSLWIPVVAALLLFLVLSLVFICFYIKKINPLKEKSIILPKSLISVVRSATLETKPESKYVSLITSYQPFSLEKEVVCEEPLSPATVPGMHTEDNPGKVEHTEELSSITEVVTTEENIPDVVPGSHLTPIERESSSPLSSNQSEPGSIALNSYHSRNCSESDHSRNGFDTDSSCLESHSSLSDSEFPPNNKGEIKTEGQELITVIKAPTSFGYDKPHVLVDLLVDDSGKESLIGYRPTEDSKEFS
T1 sequence (looked up) 2: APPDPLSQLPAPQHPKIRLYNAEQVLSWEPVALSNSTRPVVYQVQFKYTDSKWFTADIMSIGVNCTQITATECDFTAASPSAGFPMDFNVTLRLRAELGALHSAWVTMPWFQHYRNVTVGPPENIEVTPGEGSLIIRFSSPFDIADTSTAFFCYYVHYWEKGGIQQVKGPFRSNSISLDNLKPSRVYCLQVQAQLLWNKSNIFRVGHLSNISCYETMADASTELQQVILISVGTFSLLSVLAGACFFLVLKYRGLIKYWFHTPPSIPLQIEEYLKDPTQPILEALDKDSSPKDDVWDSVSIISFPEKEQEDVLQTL
Assay: cell-based or functional assay
measured endpoint: EC50 in HT-29 cells, pSTAT1

rhIFN-γ-1b-N98C cysteine mutein (ligand) MQDPYVKEAENLKKYFNAGHSDVADNGTLFLGILKNWKEESDRKIMQSQIVSFYFKLFKNFKDDQSIQKSVETIKEDMNVKFFNSNKKKRDDFEKLTCYSVTDLNVQRKAIHELIQVMAELSPAAKTGKRKRSQMLFRGR | 1.7 ng/mL

For rhIFN-γ-1b (wild-type recombinant human interferon-γ-1b) (ligand, also called wt (rhIFN-γ-1b); WT IFN-γ-1b (Actimmune)) MQDPYVKEAENLKKYFNAGHSDVADNGTLFLGILKNWKEESDRKIMQSQIVSFYFKLFKNFKDDQSIQKSVETIKEDMNVKFFNSNKKKRDDFEKLTNYSVTDLNVQRKAIHELIQVMAELSPAAKTGKRKRSQMLFRGR the binder record lists EC50 in HT-29 cells, pSTAT1 as 1 ng/mL
